tested on: Mycobacterium tuberculosis variant bovis BCG; assay: Antimicrobial activity against Mycobacterium bovis BCG ML1034 by microplate Alamar blue assay; format: functional
Measured MIC, listed per entry.

# compound, bound-type, MIC (µg/mL)
rows = [
    ("O=C(N[C@H](CO)[C@H](O)c1ccc([N+](=O)[O-])cc1)C(Cl)Cl [CHLORAMPHENICOL]", "=", 512),
    ("CC1(C)S[C@@H]2[C@H](NC(=O)[C@H](N)c3ccccc3)C(=O)N2[C@H]1C(=O)O [AMPICILLIN]", "=", 2000),
    ("CN(C)[C@@H]1C(O)=C(C(N)=O)C(=O)[C@@]2(O)C(O)=C3C(=O)c4c(O)cccc4[C@@](C)(O)[C@H]3C[C@@H]12 [TETRACYCLINE]", ">", 16),
    ("CN[C@@H]1[C@H](O[C@H]2[C@H](O[C@H]3[C@H](O)[C@@H](O)[C@H](N=C(N)N)[C@@H](O)[C@@H]3N=C(N)N)O[C@@H](C)[C@]2(O)C=O)O[C@@H](CO)[C@H](O)[C@H]1O [STREPTOMYCIN]", "=", 16),
    ("CN[C@H](CC(C)C)C(=O)N[C@H]1C(=O)N[C@@H](CC(N)=O)C(=O)N[C@H]2C(=O)N[C@H]3C(=O)N[C@H](C(=O)N[C@H](C(=O)O)c4cc(O)cc(O)c4-c4cc3ccc4O)[C@H](O)c3ccc(c(Cl)c3)Oc3cc2cc(c3O[C@@H]2O[C@H](CO)[C@@H](O)[C@H](O)[C@H]2O[C@H]2C[C@](C)(N)[C@H](O)[C@H](C)O2)Oc2ccc(cc2Cl)[C@H]1O [VANCOMYCIN]", "=", 20),
]
